# protocolDescription: PAMPA (parallel artificial membrane permeability assay)
# Format: in vitro ADME
# assaySetup: PAMPA; membrane permeation rate (Pe); 50 mM MOPSO buffer pH 6.5 with 5.0% glycocholic acid, 37° C., 18 hours; read-out: iPAMPA Pe
Positions of bridges follow the written chain, without caps; N, C: chain ends. Non-standard residues stand in square brackets, D forms with d. Residues, ends and D or L forms follow the SMILES beside them. *: point of attachment. NMePhe(3-Cl) = CN[C@@H](Cc1cccc(Cl)c1)C(=O)O; NMeF = CN[C@@H](Cc1ccccc1)C(=O)O; NMeL = CN[C@@H](CC(C)C)C(=O)O; NMeS = CN[C@@H](CO)C(=O)O; NMeA = CN[C@@H](C)C(=O)O; Piperidide = C1CCN(*)CC1; β3hA = C[C@H](N)CC(=O)O; Abu = CC[C@H](N)C(=O)O; Sar = CNCC(=O)O; tBu = CC(C)(C)*
Criterion: Papp at 18 hours, 50 µM strictly less than 6 ×10⁻⁶ cm/s. Met: Yes. Not met: No.

INSERT INTO measurements (compound, assignedlabel) VALUES
  ('CC(C)C[C@H]1C(=O)N[C@@H](COC(C)(C)C)C(=O)N[C@@H](C)CC(=O)N[C@H](C)C(=O)N(C)[C@@H](C)C(=O)N(C)[C@@H](Cc2ccccc2)C(=O)N(C)[C@@H](CC(C)C)C(=O)N[C@@H]([C@@H](C)O)C(=O)N(C)[C@@H](C)C(=O)N1C [DP-787] (cyclo([NMeA][NMeF][NMeL]T[NMeA][NMeL]S(tBu)[β3hA][dA]))', 'No'),
  ('CC[C@H](C)[C@H](NC(=O)[C@H](Cc1ccccc1)N(C)C(=O)[C@H](C)N(C)C(=O)[C@@H](NC(=O)[C@@H]1CC(=O)N[C@@H](C)C(=O)N[C@@H]([C@@H](C)O)C(=O)N(C)[C@@H](CC(C)C)C(=O)N[C@@H](C(C)C)C(=O)N(C)[C@@H](Cc2cccc(Cl)c2)C(=O)N(C)[C@@H](CC(C)C)C(=O)N[C@@H](Cc2ccccc2)C(=O)N1)[C@@H](C)CC)C(=O)N1CCCCC1 [DP-928] (AT[NMeL]V[NMePhe(3-Cl)][NMeL]FDI[NMeA][NMeF]I-Piperidide; lactam N-8)', 'Yes'),
  ('CC[C@H](C)[C@@H]1NC(=O)[C@H]([C@@H](C)O)NC(=O)[C@H](Cc2ccccc2)NC(=O)[C@H](CC(C)C)NC(=O)[C@@H](C)NC(=O)C[C@@H](C(=O)N2CCCCC2)NC(=O)[C@H](CC(C)C)NC(=O)[C@H](CC(C)C)N(C)C(=O)[C@H](CC(C)C)NC(=O)CNC(=O)[C@H](Cc2ccccc2)NC1=O [DP-321] ([dA]LFTIFGL[NMeL]LD-Piperidide; lactam N-11)', 'No'),
  ('CC[C@H](C)[C@@H]1NC(=O)[C@H](CC(C)C)N(C)C(=O)CN(C)C(=O)[C@H]([C@@H](C)O)NC(=O)[C@H](C)N(C)C(=O)C[C@@H](C(=O)N(C)[C@@H](C)C(=O)N[C@@H](CC(C)C)C(=O)N[C@H](C(=O)N(C)[C@@H](C)C(=O)N[C@@H](C)C(=O)N2CCCCC2)C(C)C)NC(=O)[C@H](CC(C)C)N(C)C(=O)[C@H](Cc2ccccc2)N(C)C(=O)[C@H](CC(C)C)N(C)C1=O [DP-659] ([NMeA]T[Sar][NMeL]I[NMeL][NMeF][NMeL]D[NMeA]LV[NMeA]A-Piperidide; lactam N-9)', 'No'),
  ('CC[C@@H]1NC(=O)[C@H](CO)N(C)C(=O)[C@H](CC(C)C)N(C)C(=O)[C@H](CC(C)C)N(C)C(=O)[C@H](CC(C)C)N(C)C(=O)[C@@H](CC(C)C)NC(=O)[C@H](C)NC(=O)[C@H](CC(C)C)N(C)C(=O)[C@H](C)NC(=O)[C@H](CC(C)C)N(C)C(=O)C[C@H](C)NC1=O [DP-650] (cyclo(A[NMeL]A[dL][NMeL][NMeL][NMeL][NMeS][Abu][β3hA][NMeL]))', 'No');

---

# protocolDescription: PAMPA (parallel artificial membrane permeability assay)
# Type: in vitro ADME
# assaySetup: PAMPA; membrane permeation rate (Pe); 50 mM MOPSO buffer pH 6.5 with 5.0% glycocholic acid, 37° C., 18 hours; read-out: iPAMPA Pe
Positions of bridges follow the written chain, without caps; N, C: chain ends. Non-standard residues stand in square brackets, D forms with d. Residues, ends and D or L forms follow the SMILES beside them. *: point of attachment. NMeF = CN[C@@H](Cc1ccccc1)C(=O)O; NMeL = CN[C@@H](CC(C)C)C(=O)O; Piperidide = C1CCN(*)CC1; dNMeA = CN[C@H](C)C(=O)O; tBu = CC(C)(C)*
measuredParameter: Papp at 18 hours, 50 µM (nm/s)

INSERT INTO results (compound, measuredparameter, resultnumber) VALUES
  ('CC[C@H](C)[C@@H]1NC(=O)[C@H](Cc2ccccc2)NC(=O)[C@@H](C)N(C)C(=O)C[C@@H](C(=O)N2CCCCC2)NC(=O)[C@H](Cc2ccccc2)N(C)C(=O)[C@H](Cc2ccccc2)NC(=O)[C@H](CC(C)C)NC(=O)[C@H]([C@@H](C)O)NC(=O)[C@H](CC(C)C)NC(=O)[C@H](CC(C)C)N(C)C1=O [DP-338] ([dNMeA]FI[NMeL]LTLF[NMeF]D-Piperidide; lactam N-10)', 'Papp at 18 hours, 50 µM', 49),
  ('CC(C)C[C@H]1C(=O)N[C@H](C(=O)N2CCCCC2)CC(=O)N[C@H](C)C(=O)N(C)[C@@H](Cc2ccccc2)C(=O)N(C)[C@@H](CC(C)C)C(=O)N[C@@H]([C@@H](C)O)C(=O)N(C)[C@@H](CC(C)C)C(=O)N[C@@H](COC(C)(C)C)C(=O)N1C [DP-684] ([dA][NMeF][NMeL]T[NMeL]S(tBu)[NMeL]D-Piperidide; lactam N-8)', 'Papp at 18 hours, 50 µM', 230);

---

Readings of microsomal CLint at 1 uM for the listed compounds
# protocolDescription: Metabolic stability in human hepatic microsome
# Type: in vitro ADME
# assaySetup: human, microsomes, pH 7.4, CL NADPH(+)
Starred links: 1 amine or outer side, 2 acyl side, 3 side chain; linkers in the order of their positions; H or OH if unused. Positions of bridges follow the written chain, without caps; N, C: chain ends. Non-standard residues stand in square brackets, D forms with d. Residues, ends and D or L forms follow the SMILES beside them. *: point of attachment. NMeF = CN[C@@H](Cc1ccccc1)C(=O)O; NMeGABA = CN(CCCC(=O)[*:2])[*:1]; NMeI = CC[C@H](C)[C@H](NC)C(=O)O; NMeL = CN[C@@H](CC(C)C)C(=O)O; NMeV = CN[C@H](C(=O)O)C(C)C; NMeA = CN[C@@H](C)C(=O)O; Piperidide = C1CCN(*)CC1; β3hA = C[C@H](N)CC(=O)O; Sar = CNCC(=O)O
measuredParameter: microsomal CLint at 1 uM (µL/min/mg)

INSERT INTO results (compound, resultnumber) VALUES
  ('CC[C@H](C)[C@H]1C(=O)N(C)[C@@H](CC(C)C)C(=O)N[C@@H](C)C(=O)N(C)[C@@H](CC(C)C)C(=O)N(C)[C@@H](Cc2ccccc2)C(=O)N[C@@H]([C@@H](C)O)C(=O)N(C)[C@@H](Cc2ccccc2)C(=O)N(C)[C@@H](CC(C)C)C(=O)N(C)[C@@H](C)C(=O)N[C@@H](C)CC(=O)N[C@H](C(C)C)C(=O)N1C [DP-773] (cyclo(A[NMeL][NMeF]T[NMeF][NMeL][NMeA][β3hA][dV][NMeI][NMeL]))', 17),
  ('CC(C)C[C@H]1C(=O)N[C@@H](C)C(=O)N(C)[C@@H](Cc2ccccc2)C(=O)N2CCC[C@H]2C(=O)N(C)[C@@H](CC(C)C)C(=O)N(C)[C@@H](C(C)C)C(=O)N[C@H](C(=O)N2CCCCC2)CC(=O)N(C)CCCC(=O)N[C@@H]([C@@H](C)O)C(=O)N(C)CC(=O)N(C)[C@@H](Cc2ccccc2)C(=O)N1C [DP-276] ([NMeGABA]T[Sar][NMeF][NMeL]A[NMeF]P[NMeL][NMeV]D-Piperidide; lactam N-11)', 68),
  ('CC[C@H](C)[C@@H]1NC(=O)[C@H](Cc2ccccc2)N(C)C(=O)[C@H](Cc2ccccc2)NC(=O)[C@H](CC(C)C)N(C)C(=O)[C@H](CC(C)C)NC(=O)[C@H](C)NC(=O)C[C@@H](C(=O)N2CCCCC2)NC(=O)[C@H]([C@@H](C)O)NC(=O)[C@@H]2CCCN2C1=O [DP-33] (AL[NMeL]F[NMeF]IPTD-Piperidide; lactam N-9)', 202);
